tested on: NCI-H1666; assay: relative viability (nuclei count vs DMSO), 5 days (fraction); higher = more cells survive; conditions: first compound 0.05 µM
readout label: relative viability
# print the numeric value only

Data request: Request body: readout relative viability, system NCI-H1666, query Nc1ccn([C@@H]2O[C@H](CO)[C@@H](O)[C@@H]2O)c(=O)n1 [Cytarabine] + CS(=O)(=O)CCNCc1ccc(-c2ccc3ncnc(Nc4ccc(OCc5cccc(F)c5)c(Cl)c4)c3c2)o1 [Lapatinib] (partner 2 µM) . Return the value.
Data returned: 0.378

Data request: Request body: readout relative viability, system NCI-H1666, query COc1cc2nccc(Oc3ccc(NC(=O)Nc4cc(C)on4)c(Cl)c3)c2cc1OC [Tivozanib] + CS(=O)(=O)CCNCc1ccc(-c2ccc3ncnc(Nc4ccc(OCc5cccc(F)c5)c(Cl)c4)c3c2)o1 [Lapatinib] (partner 2 µM) . Return the value.
Data returned: 0.641

Data request: Request body: readout relative viability, system NCI-H1666, query Nc1ccn([C@@H]2O[C@H](CO)[C@@H](O)[C@@H]2O)c(=O)n1 [Cytarabine] + NC(=O)Nc1cc(-c2cccc(F)c2)sc1C(=O)N[C@H]1CCCNC1 [AZD7762] (partner 0.2 µM) . Return the value.
Data returned: 0.666

Data request: Request body: readout relative viability, system NCI-H1666, query COc1cc2nccc(Oc3ccc(NC(=O)Nc4cc(C)on4)c(Cl)c3)c2cc1OC [Tivozanib] + C[C@@H](Oc1cc(-c2cnn(C3CCNCC3)c2)cnc1N)c1c(Cl)ccc(F)c1Cl [Crizotinib] (partner 1 µM) . Return the value.
Data returned: 0.901

Data request: Request body: readout relative viability, system NCI-H1666, query COc1cc2nccc(Oc3ccc(NC(=O)Nc4cc(C)on4)c(Cl)c3)c2cc1OC [Tivozanib] + COc1cccc2cc(-c3nc([C@H]4CC[C@H](C(=O)O)CC4)n4ncnc(N)c34)[nH]c12 [OSI-027] (partner 0.5 µM) . Return the value.
Data returned: 0.843
